Each recorded value in this set is attributed to PubChem BioAssay AID1259407.

Tested on: CCRIS mutagenicity, Ames/micronucleus/aberration tests
assay: CCRIS mutagenicity studies
condition.label: Test System: AMES SALMONELLA TYPHIMURIUM; Strain/Indicator: TA1535; Metabolic Activation: RAT, LIVER, S-9, AROCLOR 1254; Method: STANDARD PLATE
The source made the active and inactive calls. No rule for the calls is given here.
Select the correct class. Options are label 1 = active, label 0 = inactive and nothing else.

// return assay outcome for Nc1nc2ccc([N+](=O)[O-])cc2s1 label 0

// return assay outcome for CCCCCCCCCC/C=C/C1CC(=O)OC1=O (stereo not drawn) label 0

// return assay outcome for Cc1ccccc1NS(=O)(=O)c1cccc2cccnc12 label 0

// return assay outcome for CCOS(C)(=O)=O label 1

// return assay outcome for O=C1c2cccc(O)c2C(=O)c2c(O)cc(CO)cc21 label 0

// return assay outcome for OC(O)C(Cl)(Cl)Cl label 0

// return assay outcome for CCCCCCCCCCCC(=O)OCCS(=O)(=O)O label 0

// return assay outcome for C[C@H](CCC(=O)NCCS(=O)(=O)O)[C@H]1CC[C@H]2[C@@H]3C[C@H](O)[C@@H]4C[C@H](O)CC[C@]4(C)[C@H]3CC[C@]12C label 0

// return assay outcome for O=S(=O)(O)CNc1ccc(N=Nc2cccnc2)cc1 label 0

// return assay outcome for N#CC(Cl)(Cl)Cl label 0

// return assay outcome for CC1=CCC(C(C)(C)O)CC1 (stereo not drawn) label 0

// return assay outcome for Cc1ccc(N)c(S(=O)(=O)O)c1 label 0

// return assay outcome for ON=C1CCCCC1 label 0

###

System: CCRIS mutagenicity, Ames/micronucleus/aberration tests
assay: CCRIS mutagenicity studies
condition.label: Test System: AMES SALMONELLA TYPHIMURIUM; Strain/Indicator: TA100; Metabolic Activation: RAT, LIVER, S-9, PCB; Method: STANDARD PLATE
Calls of active or inactive are those of the source. The rule behind the calls is not given here.
Select the correct class. Options are active, inactive and nothing else.

// return assay outcome for Nc1ccc(Cc2ccc(N)cc2)cc1 active

// return assay outcome for Nc1ccc(S(=O)(=O)c2ccc(N)cc2)cc1 inactive

// return assay outcome for CC(=O)Nc1ccc(Oc2ccc(N)cc2)cc1 active

// return assay outcome for O=C/C(Br)=C/c1ccccc1 active

// return assay outcome for c1cc2ccc3ccc4ccc5ccc6ccc1c1c2c3c4c5c61 inactive

// return assay outcome for c1ccc2c(c1)cnc1ccccc12 active

// return assay outcome for O[C@H]1C=Cc2c(ccc3c(Cl)c4ccccc4cc23)[C@@H]1O active

###

Tested on: CCRIS mutagenicity, Ames/micronucleus/aberration tests
assay: CCRIS mutagenicity studies
condition.label: Test System: AMES SALMONELLA TYPHIMURIUM; Strain/Indicator: TA1537; Metabolic Activation: RAT LIVER S-9, AROCLOR 1254; Method: STANDARD PLATE
The source made the active and inactive calls. How the calls were made is not given here.
Select the correct class. Options are active, inactive and nothing else.

// return assay outcome for C[Si]1(C)O[Si](C)(C)O[Si](C)(C)O[Si](C)(C)O1 inactive

// return assay outcome for CC1COCc2cc3c(cc21)C(C)(C)C(C)C3(C)C (stereo not given) inactive

// return assay outcome for CCCCCCOCCOCCO inactive

// return assay outcome for CCC1C(C)=NN=C(c2ccc(OC)c(OC)c2)c2cc(OC)c(OC)cc21 (stereo not given) inactive

// return assay outcome for Cc1ccc2[nH]c3c(C)cc([N+](=O)[O-])c(C)c3c2c1 active
